system: KRAS-mutant PDC multicell tumor spheroid viability; experiment: Anticancer human tumor 521955-158-R2-J5-PDC patient-derived pancreatic carcinoma cell line growth inhibition [KRAS2]; conditions: second compound 3.16 µM; first compound 0.00316 µM; active = viability on the fitted dose curve at most 10% of control; inactive = the rest;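 also: viability read after seven days of drug exposure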
Write down one outcome, taken from 1 (yes) for active, 0 (no) for inactive

Solved cases (4 shown):
>>> assigned_class("CC(=O)Nc1cccc(-n2c(=O)n(C3CC3)c(=O)c3c(Nc4ccc(I)cc4F)n(C)c(=O)c(C)c32)c1 + CNCc1ccccc1-c1csc(C(C)Nc2nc(C)nc3cc(OC)c(OC)cc23)c1")
"1 (yes)"
>>> assigned_class("CCN1CCN(Cc2ccc(Nc3ncc(F)c(-c4cc(F)c5nc(C)n(C(C)C)c5c4)n3)nc2)CC1 + CNCc1ccccc1-c1csc(C(C)Nc2nc(C)nc3cc(OC)c(OC)cc23)c1")
"1 (yes)"
>>> assigned_class("CC(=O)Nc1cccc(-n2c(=O)n(C3CC3)c(=O)c3c(Nc4ccc(I)cc4F)n(C)c(=O)c(C)c32)c1 + CC1OCC2(CCN(c3cnc(Sc4ccnc(N)c4Cl)c(N)n3)CC2)C1N")
"0 (no)"
>>> assigned_class("Cn1ncnc1[C@H]1c2n[nH]c(=O)c3cc(F)cc(c23)N[C@@H]1c1ccc(F)cc1 + CC1OCC2(CCN(c3cnc(Sc4ccnc(N)c4Cl)c(N)n3)CC2)C1N")
"0 (no)"

Task item: I would be grateful if you could indicate the recorded call for CN(C)C/C=C/C(=O)Nc1cc2c(Nc3ccc(F)c(Cl)c3)ncnc2cc1O[C@H]1CCOC1 + CNCc1ccccc1-c1csc(C(C)Nc2nc(C)nc3cc(OC)c(OC)cc23)c1 .
Reply: 0 (no)
